Origin of values: the supplement of paper PMC10266784

B1: library; numbered along this chain (parent)
chain: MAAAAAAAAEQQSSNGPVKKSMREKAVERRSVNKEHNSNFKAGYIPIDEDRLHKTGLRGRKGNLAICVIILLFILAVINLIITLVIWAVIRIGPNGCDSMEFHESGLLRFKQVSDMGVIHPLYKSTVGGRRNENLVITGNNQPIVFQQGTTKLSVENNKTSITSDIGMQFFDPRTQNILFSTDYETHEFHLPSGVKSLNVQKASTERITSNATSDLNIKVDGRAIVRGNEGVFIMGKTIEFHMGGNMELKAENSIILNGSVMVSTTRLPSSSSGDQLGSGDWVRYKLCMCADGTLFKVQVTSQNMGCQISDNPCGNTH

variants of: B1; assay: SGCB cell-surface expression functional score (HA stain, bin4 vs bin1, normalised to synonymous) (log10 ratio); higher = more cell-surface SGCB (functional)
measured_quantity: SGCB cell-surface expression functional score (log10)

>>> df
   mutant_designation  assay_value
0               T163Y         0.58
1               L268M         0.61
2                I47S         0.29
3               S270Q         0.47
4               K297A        -0.41
5               V136Y         0.15
6               V145M         -0.9
7                I74K         0.07

Consider now this further variant.
Which SGCB cell-surface expression functional score (log10) value belongs to K41G ?
-0.27
